# System: Cortical Cells
# ASSAY EXPLANATION: Neurite Cell Outgrowth Assay, cortical cells
# Format: cell-based
# REPORTED CONDITIONS: Rattus norvegicus; 50 nM; percent change over the vehicle response; NA = no change/not active
ASSAY METRIC: activation at 0.05 µM (%)
Reply numerically in %, unit not repeated.

Worked cases, answers included:
INSERT INTO results (compound, experimental_system, value_observed) VALUES
  ('COc1ccccc1-[n+]1sc(Nc2ccccc2Cl)nc1-c1ccccc1 [Compound 34]', 'Cortical Cells', 22),
  ('Cc1ccc(Nc2nc(-c3ccccc3)[n+](-c3ccccc3Cl)s2)cc1 [Compound 45]', 'Cortical Cells', 25),
  ('COc1ccc(-c2nc(Nc3ccccc3C)s[n+]2-c2ccc(OC)cc2)cc1 [Compound 61]', 'Cortical Cells', 17),
  ('Cc1ccc(-n2s/c(=N/c3ccccc3)nc2-c2ccccc2)cc1 [Compound 82]', 'Cortical Cells', 15),
  ('COc1ccc(-c2nc(Nc3ccccc3OC)s[n+]2-c2ccc(OC)cc2)cc1 [Compound 59]', 'Cortical Cells', 21);

Proceed to the following item.
Look up activation at 0.05 µM: Cc1ccccc1Nc1nc(-c2ccccc2)[n+](-c2ccccc2C)s1 [Compound 12]
20

* * *

# EXPERIMENTAL SYSTEM: melanocortin MC-4 receptor (Homo sapiens, UniProt P32245)
# Construct: purchased Receptor Biology Inc
# Sequence (P32245 whole entry): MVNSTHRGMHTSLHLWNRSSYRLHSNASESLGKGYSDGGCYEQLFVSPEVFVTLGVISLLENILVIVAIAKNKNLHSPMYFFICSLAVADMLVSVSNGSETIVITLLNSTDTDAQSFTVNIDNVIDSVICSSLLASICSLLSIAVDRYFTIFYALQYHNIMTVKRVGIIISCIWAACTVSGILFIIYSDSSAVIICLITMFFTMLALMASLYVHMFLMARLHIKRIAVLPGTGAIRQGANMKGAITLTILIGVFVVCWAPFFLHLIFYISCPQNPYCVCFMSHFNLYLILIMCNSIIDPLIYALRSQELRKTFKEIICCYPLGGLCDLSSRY
# ASSAY EXPLANATION: MC-4 receptor binding (Filtration)
# REPORTED CONDITIONS: Filtration; read-out: IC50 MC-4 (μM) (Filtration)
ASSAY METRIC: IC50 (µM)
The figure you give is taken to be in µM; do not add the unit.

INSERT INTO measurements (smiles_input, experimental_system, u, value_observed) VALUES
  ('Cc1ccccc1Nc1nc(-c2ccccc2)[n+](-c2ccc(Cl)cc2)s1', 'melanocortin MC-4 receptor (Homo sapiens, UniProt P32245)', 'µM', 3.9),
  ('Cc1ccc(-[n+]2sc(Nc3ccc(Cl)cc3)nc2-c2ccccc2)cc1', 'melanocortin MC-4 receptor (Homo sapiens, UniProt P32245)', 'µM', 2.5);

Report IC50 for Clc1ccc(-[n+]2sc(Nc3ccccc3)nc2-c2ccccc2)cc1 please.
4.5

Data request, read-out IC50, for Cc1ccc(Nc2nc(-c3ccccc3)[n+](-c3ccccc3C)s2)cc1
2.4

Dear colleague, I am looking for the recorded IC50 of the following compound: Clc1ccc(Nc2nc(-c3ccccc3)[n+](-c3ccc(Cl)cc3)s2)cc1
3.5

Param item = COc1ccccc1Nc1nc(-c2ccccc2)[n+](-c2ccc(C)cc2)s1 ; retrieve measured IC50.
0.7

Quick check: IC50 of COc1ccc(/N=c2\nc(-c3ccccc3)n(-c3ccc(C)cc3)s2)cc1 ?
1.9

Data request, read-out IC50, for Cc1ccc(-n2s/c(=N/c3ccccc3)nc2-c2ccccc2)cc1
1.5

Which measured IC50 value corresponds to COc1ccc(Nc2nc(-c3ccccc3)[n+](-c3ccccc3C)s2)cc1 ?
1.1

* * *

# Test system: Cortical Cells
# ASSAY EXPLANATION: Neurite Cell Outgrowth Assay, cortical cells
# Type: cell-based
# REPORTED CONDITIONS: Rattus norvegicus; 50 nM; percent change over the vehicle response; NA = no change/not active
Recorded activation at 0.05 µM for the following molecules
# value in %; strip the unit string

Look over these answered cases.
INSERT INTO assay_data (molecule, value_observed) VALUES
  ('COc1ccccc1-[n+]1sc(Nc2ccc(C)cc2)nc1-c1ccccc1.[Br-] [Compound 31]', 16),
  ('Cc1ccccc1Nc1nc(-c2ccccc2)[n+](-c2ccccc2Cl)s1 [Compound 46]', 19),
  ('COc1ccccc1Nc1nc(-c2ccccc2)[n+](-c2ccccc2Cl)s1 [Compound 44]', 19),
  ('COc1ccc(-c2nc(Nc3ccc(C)cc3)s[n+]2-c2ccc(OC)cc2)cc1 [Compound 60]', 14),
  ('Cc1ccc(Nc2nc(-c3ccccc3)[n+](-c3ccccc3)s2)cc1 [Compound 25]', 23),
  ('Clc1ccccc1Nc1nc(-c2ccccc2)[n+](-c2ccccc2)s1 [Compound 49]', 51);

So what's the measured activation at 0.05 µM for this one? Clc1ccc(Nc2nc(-c3ccccc3)[n+](-c3ccccc3Cl)s2)cc1 [Compound 47]
13

Name the recorded activation at 0.05 µM for COc1ccccc1-[n+]1sc(Nc2ccccc2)nc1-c1ccccc1 [Compound 28] .
25

Which measured activation at 0.05 µM value corresponds to COc1ccccc1Nc1nc(-c2ccccc2)[n+](-c2ccc(C)cc2)s1 [Compound 3] ?
23

For the molecule COc1ccc(-[n+]2sc(Nc3ccccc3OC)nc2-c2ccccc2)cc1 [Compound 37] , what activation at 0.05 µM is on record?
26

Reported activation at 0.05 µM for COc1ccc(Nc2nc(-c3ccccc3)[n+](-c3ccccc3OC)s2)cc1 [Compound 29] : what is it?
8

So what does the record say about activation at 0.05 µM for COc1ccccc1-[n+]1sc(Nc2ccc(Cl)cc2)nc1-c1ccccc1 [Compound 33] ?
21

Using the record for COc1ccc(-[n+]2sc(Nc3ccccc3)nc2-c2ccccc2)cc1 [Compound 35] , report its activation at 0.05 µM.
28

For the molecule shown here, COc1ccc(-c2nc(Nc3ccc(Cl)cc3)s[n+]2-c2ccc(OC)cc2)cc1 [Compound 62] , give the reported activation at 0.05 µM.
13

Value lookup for activation at 0.05 µM; key = Clc1ccc(Nc2nc(-c3ccccc3)[n+](-c3ccccc3)s2)cc1 [Compound 27]
52

Look up activation at 0.05 µM for this molecule: COc1ccc(CNc2nc(-c3ccccc3)[n+](-c3ccccc3)s2)cc1 [Compound 51]
28

State the recorded activation at 0.05 µM for this entry: COc1ccc(Nc2nc(-c3ccccc3)[n+](-c3ccc(OC)cc3)s2)cc1 [Compound 36]
16

I would be grateful if you could share the reported activation at 0.05 µM for COc1ccc(-[n+]2sc(Nc3ccccc3Cl)nc2-c2ccccc2)cc1 [Compound 41] .
5

* * *

# EXPERIMENTAL SYSTEM: melanocortin MC-4 receptor (Homo sapiens, UniProt P32245)
# Construct: purchased Receptor Biology Inc
# ASSAY EXPLANATION: Melanocortin MC-4 Receptor Binding Assay (SPA)
ASSAY METRIC: IC50 (nM)
// note: answer is a bare numeric in nM

Study these solved cases before continuing.
INSERT INTO assay_data (smiles_input, experimental_system, u, value_observed) VALUES
  ('COc1ccc(/N=c2\nc(-c3ccccc3)n(-c3ccc(C)cc3)s2)cc1', 'melanocortin MC-4 receptor (Homo sapiens, UniProt P32245)', 'nM', 833),
  ('COc1ccccc1-[n+]1sc(Nc2ccccc2Cl)nc1-c1ccccc1', 'melanocortin MC-4 receptor (Homo sapiens, UniProt P32245)', 'nM', 46),
  ('Clc1ccccc1Nc1nc(-c2ccccc2)[n+](-c2ccccc2)s1', 'melanocortin MC-4 receptor (Homo sapiens, UniProt P32245)', 'nM', 96),
  ('Cc1ccc(-[n+]2sc(Nc3ccc(Cl)cc3)nc2-c2ccccc2)cc1', 'melanocortin MC-4 receptor (Homo sapiens, UniProt P32245)', 'nM', 293);

Reported IC50 for COc1ccccc1-c1nc(Nc2ccccc2C)s[n+]1-c1ccccc1OC : what is it?
99

So what's the measured IC50 for this one? COc1ccc(Nc2nc(-c3ccccc3)[n+](-c3ccc(OC)cc3)s2)cc1
79

* * *

# EXPERIMENTAL SYSTEM: melanocortin MC-4 receptor (Homo sapiens, UniProt P32245)
# Construct: purchased Receptor Biology Inc
# ASSAY EXPLANATION: Melanocortin MC-4 Receptor Binding Assay (SPA)
ASSAY METRIC: IC50 MC-4 (nM) (SPA)

// solved cases for IC50 MC-4 (nM) (SPA) follow
INSERT INTO results (smiles_input, assay_metric, value_observed) VALUES
  ('COc1ccc(Nc2nc(-c3ccc(OC)cc3)[n+](-c3ccc(OC)cc3)s2)cc1', 'IC50 MC-4 (nM) (SPA)', 'inactive'),
  ('COc1ccc(-c2nc(Nc3ccc(C)cc3)s[n+]2-c2ccc(OC)cc2)cc1', 'IC50 MC-4 (nM) (SPA)', 'inactive'),
  ('COc1ccc(-c2nc(Nc3ccccc3OC)s[n+]2-c2ccc(OC)cc2)cc1', 'IC50 MC-4 (nM) (SPA)', 'inactive'),
  ('COc1ccc(-c2nc(Nc3ccc(Cl)cc3)s[n+]2-c2ccc(OC)cc2)cc1', 'IC50 MC-4 (nM) (SPA)', 'inactive'),
  ('COc1ccc(-c2nc(Nc3ccccc3C)s[n+]2-c2ccc(OC)cc2)cc1', 'IC50 MC-4 (nM) (SPA)', 'inactive');

GET /values?readout=IC50 MC-4 (nM) (SPA)&item= COc1ccc(-c2nc(Nc3ccccc3)s[n+]2-c2ccc(OC)cc2)cc1
inactive
